procedure.details: Lipophilicity, log D in octanol at pH 7.4
Type: physicochemical
*1 amine or outer side, *2 acyl side, *3 side chain or, on linkers, in order; H or OH if unused. Where a SMILES comes first, the peptide text is derived from it. Bridges are numbered along the chain shown (N, C = ends). [ ]: non-standard residue; d: D form. Phe(Nα-CH2CH2CO) = O=C([C@H](Cc1ccccc1)N(CCC(=O)[*:3])[*:1])[*:2]; N(2-aminoethyl)Phe = O=C([C@H](Cc1ccccc1)N(CCN[*:3])[*:1])[*:2]; Sar = CNCC(=O)O
readout.label: logD

Sample records with logD:
| molecule | logD |
| --- | --- |
| CN1CC(=O)NCC(=O)NCC(=O)NCC(=O)N([C@@H](Cc2ccccc2)C(N)=O)CCNC(=O)CCN[C@@H](Cc2ccccc2)C1=O (H-[Phe(Nα-CH2CH2CO)][Sar]GGG[N(2-aminoethyl)Phe]-NH2; lactam 1-6) | -0.57 |
| NC(=O)[C@H](Cc1ccccc1)N1CCNC(=O)CCN[C@@H](Cc2ccccc2)C(=O)NCC(=O)NCC(=O)NCC(=O)NCC1=O (H-[Phe(Nα-CH2CH2CO)]GGGG[N(2-aminoethyl)Phe]-NH2; lactam 1-6) | -0.41 |

Then there is this molecule:
Q: Given the entry C[C@@H]1NC(=O)[C@H](C)NC(=O)[C@H](Cc2ccccc2)NCCC(=O)NCCN([C@@H](Cc2ccccc2)C(N)=O)C(=O)[C@H](C)NC(=O)[C@H](C)NC1=O (H-[Phe(Nα-CH2CH2CO)]AAAA[N(2-aminoethyl)Phe]-NH2; lactam 1-6) , report its measured logD.
Ans: 0.49

====

Tested on: Intestine
procedure.details: Apparent permeability across rat small intestine
Format: ADME, tissue-based
*1 amine or outer side, *2 acyl side, *3 side chain or, on linkers, in order; H or OH if unused. Where a SMILES comes first, the peptide text is derived from it. Bridges are numbered along the chain shown (N, C = ends). [ ]: non-standard residue; d: D form. Phe(Nα-CH2CH2CO) = O=C([C@H](Cc1ccccc1)N(CCC(=O)[*:3])[*:1])[*:2]; N(2-aminoethyl)Phe = O=C([C@H](Cc1ccccc1)N(CCN[*:3])[*:1])[*:2]; NMeF = CN[C@@H](Cc1ccccc1)C(=O)O; Sar = CNCC(=O)O
For each entry below, report its Papp value.
Answers are plain numbers, in ×10⁻⁶ cm/s.

See these solved cases before continuing.
| molecule | Papp, ×10⁻⁶ cm/s |
| --- | --- |
| CN[C@@H](Cc1ccccc1)C(=O)NCC(=O)NCC(=O)NCC(=O)NCC(=O)N(C)[C@@H](Cc1ccccc1)C(N)=O (H-[NMeF]GGGG[NMeF]-NH2) | 0.73 |
| CN[C@@H](Cc1ccccc1)C(=O)N(C)CC(=O)N(C)CC(=O)NCC(=O)NCC(=O)N(C)[C@@H](Cc1ccccc1)C(N)=O (H-[NMeF][Sar][Sar]GG[NMeF]-NH2) | 1 |
| CN1CC(=O)N(C)CC(=O)N([C@@H](Cc2ccccc2)C(N)=O)CCNC(=O)CCN[C@@H](Cc2ccccc2)C(=O)N(C)CC(=O)N(C)CC1=O (H-[Phe(Nα-CH2CH2CO)][Sar][Sar][Sar][Sar][N(2-aminoethyl)Phe]-NH2; lactam 1-6) | 4.87 |

Please give Papp for each item listed below.
1. CN[C@@H](Cc1ccccc1)C(=O)N[C@@H](C)C(=O)N[C@@H](C)C(=O)NCC(=O)NCC(=O)N(C)[C@@H](Cc1ccccc1)C(N)=O (H-[NMeF]AAGG[NMeF]-NH2)
2. C[C@@H]1NC(=O)[C@H](C)NC(=O)[C@H](C)NC(=O)[C@H](Cc2ccccc2)NCCC(=O)NCCN([C@@H](Cc2ccccc2)C(N)=O)C(=O)CNC1=O (H-[Phe(Nα-CH2CH2CO)]AAAG[N(2-aminoethyl)Phe]-NH2; lactam 1-6)

Ans:
[0.99, 6.16]

====

procedure.details: Metabolic stability in rat brush border vesicles
Type: ADME
*1 amine or outer side, *2 acyl side, *3 side chain or, on linkers, in order; H or OH if unused. Where a SMILES comes first, the peptide text is derived from it. Bridges are numbered along the chain shown (N, C = ends). [ ]: non-standard residue; d: D form. Phe(Nα-CH2CH2CO) = O=C([C@H](Cc1ccccc1)N(CCC(=O)[*:3])[*:1])[*:2]; N(2-aminoethyl)Phe = O=C([C@H](Cc1ccccc1)N(CCN[*:3])[*:1])[*:2]; Sar = CNCC(=O)O

| molecule | Stability |
| --- | --- |
| CN1CC(=O)NCC(=O)N([C@@H](Cc2ccccc2)C(N)=O)CCNC(=O)CCN[C@@H](Cc2ccccc2)C(=O)N(C)CC(=O)N(C)CC1=O (H-[Phe(Nα-CH2CH2CO)][Sar][Sar][Sar]G[N(2-aminoethyl)Phe]-NH2; lactam 1-6) | Stable |
| C[C@@H]1NC(=O)[C@H](Cc2ccccc2)NCCC(=O)NCCN([C@@H](Cc2ccccc2)C(N)=O)C(=O)CNC(=O)CNC(=O)CNC1=O (H-[Phe(Nα-CH2CH2CO)]AGGG[N(2-aminoethyl)Phe]-NH2; lactam 1-6) | Stable |

====

System: Intestine
procedure.details: Apparent permeability across rat small intestine
Assay type: ADME, tissue-based
*1 amine or outer side, *2 acyl side, *3 side chain or, on linkers, in order; H or OH if unused. Where a SMILES comes first, the peptide text is derived from it. Bridges are numbered along the chain shown (N, C = ends). [ ]: non-standard residue; d: D form. Phe(Nα-CH2CH2CO) = O=C([C@H](Cc1ccccc1)N(CCC(=O)[*:3])[*:1])[*:2]; N(2-aminoethyl)Phe = O=C([C@H](Cc1ccccc1)N(CCN[*:3])[*:1])[*:2]; Sar = CNCC(=O)O
readout.label: Papp (×10⁻⁶ cm/s)
One number for each entry, in ×10⁻⁶ cm/s.

| compound | unit.text | Papp |
| --- | --- | --- |
| CN1CC(=O)NCC(=O)N([C@@H](Cc2ccccc2)C(N)=O)CCNC(=O)CCN[C@@H](Cc2ccccc2)C(=O)N(C)CC(=O)N(C)CC1=O (H-[Phe(Nα-CH2CH2CO)][Sar][Sar][Sar]G[N(2-aminoethyl)Phe]-NH2; lactam 1-6) | ×10⁻⁶ cm/s | 5.63 |
| NC(=O)[C@H](Cc1ccccc1)N1CCNC(=O)CCCCN[C@@H](Cc2ccccc2)C(=O)NCC(=O)NCC(=O)NCC(=O)NCC1=O | ×10⁻⁶ cm/s | 5.02 |

Here is the next item to consider.
Q: What reported Papp corresponds to C[C@H](NC(=O)[C@H](C)NC(=O)[C@H](Cc1ccccc1)NCCC(=O)O)C(=O)N[C@@H](C)C(=O)N[C@@H](C)C(=O)N(CCN)[C@@H](Cc1ccccc1)C(N)=O (H-[Phe(Nα-CH2CH2CO)]AAAA[N(2-aminoethyl)Phe]-NH2) on Intestine?
Ans: 0.67

====

procedure.details: Apparent permeability across Caco-2 cells
Assay type: ADME, cell-based
condition.label: human
*1 amine or outer side, *2 acyl side, *3 side chain or, on linkers, in order; H or OH if unused. Where a SMILES comes first, the peptide text is derived from it. Bridges are numbered along the chain shown (N, C = ends). [ ]: non-standard residue; d: D form. Phe(Nα-CH2CH2CO) = O=C([C@H](Cc1ccccc1)N(CCC(=O)[*:3])[*:1])[*:2]; N(2-aminoethyl)Phe = O=C([C@H](Cc1ccccc1)N(CCN[*:3])[*:1])[*:2]; NMeF = CN[C@@H](Cc1ccccc1)C(=O)O; Sar = CNCC(=O)O
Classification scheme (Papp): L = under 1 ×10⁻⁶ cm/s, M = from 1 ×10⁻⁶ cm/s up to 2 ×10⁻⁶ cm/s, H = 2 ×10⁻⁶ cm/s and over

Use the examples below as a reference point.
| compound | class.assignment |
| --- | --- |
| NC(=O)[C@H](Cc1ccccc1)N1CCNC(=O)CCN[C@@H](Cc2ccccc2)C(=O)NCC(=O)NCC(=O)NCC(=O)NCC1=O (H-[Phe(Nα-CH2CH2CO)]GGGG[N(2-aminoethyl)Phe]-NH2; lactam 1-6) | H |
| NC(=O)[C@H](Cc1ccccc1)N1CCNC(=O)CCCCN[C@@H](Cc2ccccc2)C(=O)NCC(=O)NCC(=O)NCC(=O)NCC1=O | M |
| CN[C@@H](Cc1ccccc1)C(=O)NCC(=O)NCC(=O)NCC(=O)NCC(=O)N(C)[C@@H](Cc1ccccc1)C(N)=O (H-[NMeF]GGGG[NMeF]-NH2) | M |
| C[C@@H]1NC(=O)[C@H](C)NC(=O)[C@H](Cc2ccccc2)NCCC(=O)NCCN([C@@H](Cc2ccccc2)C(N)=O)C(=O)[C@H](C)NC(=O)[C@H](C)NC1=O (H-[Phe(Nα-CH2CH2CO)]AAAA[N(2-aminoethyl)Phe]-NH2; lactam 1-6) | M |
| CN[C@@H](Cc1ccccc1)C(=O)N(C)CC(=O)NCC(=O)NCC(=O)NCC(=O)N(C)[C@@H](Cc1ccccc1)C(N)=O (H-[NMeF][Sar]GGG[NMeF]-NH2) | L |

Q: Which bin should I file CN1CC(=O)NCC(=O)NCC(=O)N([C@@H](Cc2ccccc2)C(N)=O)CCNC(=O)CCN[C@@H](Cc2ccccc2)C(=O)N(C)CC1=O (H-[Phe(Nα-CH2CH2CO)][Sar][Sar]GG[N(2-aminoethyl)Phe]-NH2; lactam 1-6) under?
Ans: H

Q: Lab log: C[C@H](NC(=O)[C@H](C)NC(=O)[C@H](Cc1ccccc1)NCCC(=O)O)C(=O)N[C@@H](C)C(=O)N[C@@H](C)C(=O)N(CCN)[C@@H](Cc1ccccc1)C(N)=O (H-[Phe(Nα-CH2CH2CO)]AAAA[N(2-aminoethyl)Phe]-NH2) — assign Papp category
Ans: L

Q: Band assignment needed for CN1CC(=O)NCC(=O)N([C@@H](Cc2ccccc2)C(N)=O)CCNC(=O)CCN[C@@H](Cc2ccccc2)C(=O)N(C)CC(=O)N(C)CC1=O (H-[Phe(Nα-CH2CH2CO)][Sar][Sar][Sar]G[N(2-aminoethyl)Phe]-NH2; lactam 1-6) please.
Ans: H

Q: # bin lookup: classify C[C@@H]1NC(=O)[C@H](Cc2ccccc2)NCCC(=O)NCCN([C@@H](Cc2ccccc2)C(N)=O)C(=O)CNC(=O)CNC(=O)CNC1=O (H-[Phe(Nα-CH2CH2CO)]AGGG[N(2-aminoethyl)Phe]-NH2; lactam 1-6) by its Papp
Ans: M
